Data credit: patent US9382255B2

biological target: human full-length MKNK1 (Homo sapiens, UniProt Q9BUB5, T385D); construct: GST (N); assay: MKNK1 kinase high ATP assay (TR-FRET); details: high ATP (2 mM final), 15 min preincubation with enzyme, GST-MKNK1 (T344D)
Sequence (Q9BUB5 1-424 isoform Q9BUB5-2 T344D): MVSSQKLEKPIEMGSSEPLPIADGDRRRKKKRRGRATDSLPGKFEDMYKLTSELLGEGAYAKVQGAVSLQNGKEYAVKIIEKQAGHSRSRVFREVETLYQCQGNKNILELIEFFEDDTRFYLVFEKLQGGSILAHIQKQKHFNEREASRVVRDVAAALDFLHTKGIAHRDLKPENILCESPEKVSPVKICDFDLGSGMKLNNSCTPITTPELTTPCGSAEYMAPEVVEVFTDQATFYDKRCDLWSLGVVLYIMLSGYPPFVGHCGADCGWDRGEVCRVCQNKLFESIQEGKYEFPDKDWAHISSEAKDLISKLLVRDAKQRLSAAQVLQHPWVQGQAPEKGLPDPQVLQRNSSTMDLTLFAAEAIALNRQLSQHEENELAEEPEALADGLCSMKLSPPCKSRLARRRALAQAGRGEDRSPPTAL
pIC50: −log10 of the molar value.
Below is a list of entries, each paired with its recorded pIC50 value.
METRIC NAME: pIC50

> print(dat)
                                query.smiles                         target.under.test  metric.name  value.measured
 1  O=c1[nH]c2ccc(Nc3ncnc4[nH]c(C#CCO)cc34)cc2s1  human full-length MKNK1 (Homo sapiens, UniProt Q9BUB5, T385D)        pIC50            8.22
 2  Cc1ccc(S(=O)(=O)c2cc3c(Nc4ccc5[nH]c(=O)sc5c4)ncnc3[nH]2)cc1  human full-length MKNK1 (Homo sapiens, UniProt Q9BUB5, T385D)        pIC50            8.30
 3  O=c1[nH]c2ccc(Nc3ncnc4[nH]cc(F)c34)cc2s1  human full-length MKNK1 (Homo sapiens, UniProt Q9BUB5, T385D)        pIC50            7.57
 4  C[C@H]1COCCN1C(=O)c1cc2c(Nc3ccc4[nH]c(=O)sc4c3)ncnc2[nH]1  human full-length MKNK1 (Homo sapiens, UniProt Q9BUB5, T385D)        pIC50            7.33
 5     O=c1[nH]c2ccc(Nc3ncnc4[nH]ccc34)cc2s1  human full-length MKNK1 (Homo sapiens, UniProt Q9BUB5, T385D)        pIC50            7.72
 6  CCc1[nH]c2ncnc(Nc3cc4sc(=O)[nH]c4cc3OC)c2c1C  human full-length MKNK1 (Homo sapiens, UniProt Q9BUB5, T385D)        pIC50            8.22
 7  O=c1[nH]c2ccc(Nc3ncnc4[nH]c(Cl)cc34)cc2s1  human full-length MKNK1 (Homo sapiens, UniProt Q9BUB5, T385D)        pIC50            7.96
 8  Cc1cc2c(Nc3ccc4[nH]c(=O)sc4c3)ncnc2[nH]1  human full-length MKNK1 (Homo sapiens, UniProt Q9BUB5, T385D)        pIC50            7.60
 9  Cc1c[nH]c2ncnc(Nc3ccc4[nH]c(=O)sc4c3)c12  human full-length MKNK1 (Homo sapiens, UniProt Q9BUB5, T385D)        pIC50            8.05
10  O=C(O)c1c[nH]c2ncnc(Nc3ccc4[nH]c(=O)sc4c3)c12  human full-length MKNK1 (Homo sapiens, UniProt Q9BUB5, T385D)        pIC50            8.15
11  O=C(c1cc2c(Nc3ccc4[nH]c(=O)sc4c3)ncnc2[nH]1)N1CCOCC1  human full-length MKNK1 (Homo sapiens, UniProt Q9BUB5, T385D)        pIC50            7.70
12  CC(C)Cc1[nH]c2ncnc(Nc3ccc4[nH]c(=O)sc4c3)c2c1C(C)C  human full-length MKNK1 (Homo sapiens, UniProt Q9BUB5, T385D)        pIC50            7.49
13   COc1cc2[nH]c(=O)sc2cc1Nc1ncnc2[nH]ccc12  human full-length MKNK1 (Homo sapiens, UniProt Q9BUB5, T385D)        pIC50            7.96
14  COc1cc2[nH]c(=O)sc2cc1Nc1ncnc2[nH]c(C(=O)O)cc12  human full-length MKNK1 (Homo sapiens, UniProt Q9BUB5, T385D)        pIC50            7.68
15  CN(C)C1CCN(C(=O)c2cc3c(Nc4ccc5[nH]c(=O)sc5c4)ncnc3[nH]2)CC1  human full-length MKNK1 (Homo sapiens, UniProt Q9BUB5, T385D)        pIC50            7.40
16  CN1CCN(C(=O)c2c[nH]c3ncnc(Nc4ccc5[nH]c(=O)sc5c4)c23)CC1  human full-length MKNK1 (Homo sapiens, UniProt Q9BUB5, T385D)        pIC50            7.72
17     O=c1[nH]c2ccc(Nc3ncnc4[nH]ncc34)cc2s1  human full-length MKNK1 (Homo sapiens, UniProt Q9BUB5, T385D)        pIC50            7.36
18  COc1cc2[nH]c(=O)sc2cc1Nc1ncnc2[nH]c(Br)cc12  human full-length MKNK1 (Homo sapiens, UniProt Q9BUB5, T385D)        pIC50            7.74
